The origin of these recorded values is patent US20160046672A1.

# target_desc: T1, human eukaryotic translation initiation factor 4E (eIF4E), full-length (human, UniProt P06730 2-217)
# T1 construct: mature; For SPR it was amine-coupled to a CM5 chip with m7GTP present in a 2:1 ratio. 'mature' is used here for full length; also called full length eIF4E
# test_description: SPR, Biacore T100, eIF4E immobilised on CM5, peptide as analyte, kinetic 1:1 fit
# Description: For stock peptide solutions, the compounds were dissolved in 100% DMSO to a concentration of 10 mM; further dilutions of the peptide stock solutions into DMSO and/or running buffer were performed immediately prior to analysis. […] Six buffer blanks were first injected to equilibrate the instrument fully and then a solvent correction curve was performed followed by a further two blank injections. […] Using a flow rate of 50 μl/min, compounds were injected for 60 s and dissociation was monitored for 180 s. […]
Non-standard residues stand in square brackets, D forms with d. Aib = CC(C)(N)C(=O)O
Listing: Kd of selected binders

# binder, Kd [nM]
records = [
    ("Ac-KKRYSR[Aib]FLL[Aib]F-NH2 (SMILES CC(=O)N[C@@H](CCCCN)C(=O)N[C@@H](CCCCN)C(=O)N[C@@H](CCCNC(=N)N)C(=O)N[C@@H](Cc1ccc(O)cc1)C(=O)N[C@@H](CO)C(=O)N[C@@H](CCCNC(=N)N)C(=O)NC(C)(C)C(=O)N[C@@H](Cc1ccccc1)C(=O)N[C@@H](CC(C)C)C(=O)N[C@@H](CC(C)C)C(=O)NC(C)(C)C(=O)N[C@@H](Cc1ccccc1)C(N)=O, Printed KKRYSRXFLLXF, X = AIB; also called diAIB derivative of sTIP-01) [TIP-01]", 59.7),
    ("Ac-KKRYSR[Aib]ALL[Aib]F-NH2 (SMILES CC(=O)N[C@@H](CCCCN)C(=O)N[C@@H](CCCCN)C(=O)N[C@@H](CCCNC(=N)N)C(=O)N[C@@H](Cc1ccc(O)cc1)C(=O)N[C@@H](CO)C(=O)N[C@@H](CCCNC(=N)N)C(=O)NC(C)(C)C(=O)N[C@@H](C)C(=O)N[C@@H](CC(C)C)C(=O)N[C@@H](CC(C)C)C(=O)NC(C)(C)C(=O)N[C@@H](Cc1ccccc1)C(N)=O, Printed KKRYSRXALLXF, X = AIB) [TIP-01^F8A]", 117),
]
